- measured-target: CSNK2A2 (human) (UniProt P19784)
- Sequence (P19784 whole entry, looked up): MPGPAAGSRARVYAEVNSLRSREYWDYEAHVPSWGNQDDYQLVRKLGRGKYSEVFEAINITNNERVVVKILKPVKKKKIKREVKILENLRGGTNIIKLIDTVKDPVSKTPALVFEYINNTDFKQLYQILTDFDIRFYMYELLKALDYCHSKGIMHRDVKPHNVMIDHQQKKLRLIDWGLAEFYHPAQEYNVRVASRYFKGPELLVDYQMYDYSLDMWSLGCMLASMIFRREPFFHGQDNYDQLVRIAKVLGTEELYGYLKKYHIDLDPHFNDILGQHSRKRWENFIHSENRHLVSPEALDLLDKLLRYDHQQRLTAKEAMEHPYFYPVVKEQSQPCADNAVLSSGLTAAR
- experimental-details: KINOMEscan competition binding
- details: compound 10.0 µM
Listed here are compounds together with their documented kinase still bound, per cent of control.
Provide the reading as a plain figure in %.

Some solved entries appear below for comparison.
>>> df
                                chem_smiles                              metric_name  test_value
0  N#CCNC(=O)c1ccc(-c2ccnc(Nc3ccc(N4CCOCC4)cc3)n2)cc1  kinase still bound, per cent of control         6.2
1  C=CC(=O)Nc1ccc(CN(C(=O)Nc2c(Cl)c(OC)cc(OC)c2Cl)c2cc(Nc3ccc(N4CCN(C)CC4)cc3)ncn2)cc1  kinase still bound, per cent of control         100
2  COc1ccc(N(C(=O)Oc2c(C)cccc2C)c2ccnc(Nc3ccc(N4CCN(C)CC4)cc3)n2)c(OC)c1  kinase still bound, per cent of control          95
3  CS(=O)(=O)N1CCN(Cc2cc3nc(-c4cccc5[nH]ncc45)nc(N4CCOCC4)c3s2)CC1  kinase still bound, per cent of control         100
4  COCC(=O)NC/C=C/c1ccc2ncnc(Nc3ccc(Oc4ccc(C)nc4)c(C)c3)c2c1  kinase still bound, per cent of control         100
5  COc1cc2ncnc(-n3nc(-c4ccccn4)nc3N)c2cc1OC  kinase still bound, per cent of control         5.2
6  CCN(CC)CCCCNc1ncc2c(n1)N(C)C(=O)N(c1c(Cl)c(OC)cc(OC)c1Cl)C2  kinase still bound, per cent of control         100
7  CN(C)C/C=C/C(=O)Nc1ccc(C(=O)Nc2cccc(Nc3nccc(-c4cccnc4)n3)c2)cc1  kinase still bound, per cent of control         5.2

For the next question, use this compound.
**Query** Param item = `C=CC(=O)Nc1cc(-n2c(=O)ccc3cnc4ccc(-c5cn[nH]c5)cc4c32)ccc1C` ; retrieve measured kinase still bound, per cent of control.
**Result** 1.2

From: the kinase profiling compilation of Christmann-Franck et al. (2016)
